experiment.description: n-Octanol/water partition coefficient, log P of the compound
Format: physicochemical
endpoint: logP

Field: example entries. Status: answers known.
molecule: CCCCCCCCCCCCCCCCCC(=O)NCCCC(O)(P(=O)(O)O)P(=O)(O)O
endpoint: logP
reported: 0.063
//
molecule: CCCCCCCCCCCCCCCC(=O)NCCCC(O)(P(=O)(O)O)P(=O)(O)O
endpoint: logP
reported: 0.053
//
molecule: CCCCCCCCCCCCCC(=O)NCCCC(O)(P(=O)(O)O)P(=O)(O)O
endpoint: logP
reported: 0.045

Now examine the next entry.
In one line, give reported logP of the entry CCCCCCCCCCCC(=O)NCCCC(O)(P(=O)(O)O)P(=O)(O)O . 0.027

Sourced from ChEMBL document CHEMBL5252553
